- study system: T1, canine OX40L, full length membrane form, expressed on HEK293 cells (canine)
- T1 construct: also called OX40L expressing HEK; HEK OX40L cells
- T1 chain: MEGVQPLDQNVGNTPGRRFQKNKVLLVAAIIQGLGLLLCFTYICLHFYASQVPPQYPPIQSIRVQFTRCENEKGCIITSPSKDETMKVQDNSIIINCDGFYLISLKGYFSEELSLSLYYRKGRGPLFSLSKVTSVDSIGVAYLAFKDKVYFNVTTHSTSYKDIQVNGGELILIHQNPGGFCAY
- measurement protocol: flow cytometry, OX40L HEK minus WT HEK
This listing pairs binders with measured GEO mean difference.

binder | GEO mean difference
PMX156 (antibody, V domains shown) VH: ELQLVESGGDLVKPAGSLRLSCVASGFTFSNFRMSWVRQAPGKGLQFVAGINSDGYSTQYRDDVKGRFTISRDNTEKTLYLQMNNLRVEDTAMYYCVKDQGSWGGNFDYWGQGTLVTVSS VL: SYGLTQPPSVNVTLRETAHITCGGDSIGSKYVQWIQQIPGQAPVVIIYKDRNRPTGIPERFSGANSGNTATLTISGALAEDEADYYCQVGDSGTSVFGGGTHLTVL | 672000
PMX087 (antibody, V domains shown) VH: EVHLVESGGDLVKPGGSLRLSCVASGFTFSNYHMSWVRQAPGKGLQWVAFINSGGSGTSYADAVKGRFTISRDYAKSTLYLQMNSLRAEDTAVYYCASGYIWTHFDYWGQGTLVTVSS VL: SYVLTQLPSVSVTLRQTARITCGGDIIGSKNVYWYQQKLGQAPILIIYRDSNRPTGIPERFSGASSGNTATLTISGALAEDEADYYCQVWDSSTSVFGGGTHLTVL | 1.04e+06
PMX051 (antibody, V domains shown, also called PMX51) VH: EVQLVESGGDLVKPGGSLRLSCVASGFSFNTYHMNWVRQAPGKGLHWVAFINSDGGGTSYADTVKGRFTISRDYAKNTLYLQMNSLRAEDTAVYYCVSGSIWTHFDYWGQGTLVTVSS VL: SYVLTQLPSVSMTLRQTAHITCGGDIIGSKSVYWYQQKLGQAPVLIIYRDTNRPTGIPERFSGASSGNTATLTISGALAEDEADYYCQVWDSSTQAVFGGGTHLTVL | 3.92e+06
